Hello, the source for this data is IntAct's records for PubMed 31515488, in case you need it.

B1: Cyclin-dependent kinase 4 (Homo sapiens), P11802 (parent)
chain: MATSRYEPVAEIGVGAYGTVYKARDPHSGHFVALKSVRVPNGGGGGGGLPISTVREVALLRRLEAFEHPNVVRLMDVCATSRTDREIKVTLVFEHVDQDLRTYLDKAPPPGLPAETIKDLMRQFLRGLDFLHANCIVHRDLKPENILVTSGGTVKLADFGLARIYSYQMALTPVVVTLWYRAPEVLLQSTYATPVDMWSVGCIFAEMFRRKPLFCGNSEADQLGKIFDLIGLPPEDDWPRDVSLPRGAFPPRGPRPVQSVVPEMEESGAQLLLEMLTFNPHKRISAFRALQHSYLHKDEGNPE

Variants of: B1
experimental.setup: with ccnd1_human CCND1, P24385
Sequence (P24385 whole entry): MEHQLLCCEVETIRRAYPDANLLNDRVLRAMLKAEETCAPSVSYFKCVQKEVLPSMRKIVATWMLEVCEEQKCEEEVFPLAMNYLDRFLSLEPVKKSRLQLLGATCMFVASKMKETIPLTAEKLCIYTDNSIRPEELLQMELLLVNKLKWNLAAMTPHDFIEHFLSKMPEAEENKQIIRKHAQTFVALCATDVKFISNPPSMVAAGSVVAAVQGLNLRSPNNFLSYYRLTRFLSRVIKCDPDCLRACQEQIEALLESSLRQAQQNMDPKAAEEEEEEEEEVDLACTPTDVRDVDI
property: effect of a mutation on the interaction

{"columns": ["var", "property", "measurement"],
 "data": [
  ["S52N", "effect of a mutation on the interaction", "with no effect"],
  ["N41S", "effect of a mutation on the interaction", "with no effect"],
  ["R24H", "effect of a mutation on the interaction", "with no effect"],
  ["R255H", "effect of a mutation on the interaction", "with no effect"]
]}
